Entries and their melting point

| Molecule | Result |
| --- | --- |
| Nc1ncnc2c1N=C(c1ccc(F)cc1)CO2 | > 220 °C |
| CC1(C)Oc2ncnc(N)c2N=C1c1ccc([C@H]2CC[C@H](CCNS(C)(=O)=O)CC2)cc1 | 218 to 219 °C |
| COc1ccc(C2Nc3c(N)ncnc3OC2(C)C)cc1 (centres unmarked) | 225 to 226 °C |

melting point for `CC1(C)Oc2ncnc(N)c2N=C1c1ccc([C@H]2CC[C@H](C(=O)NCC(=O)O)CC2)cc1` ?
> 250 °C

melting point for `Cc1nc(N)c2c(n1)OC(C)(C)C(c1ccc([C@H]3CC[C@H](CC(=O)N(C)CC(N)=O)CC3)cc1)=N2` ?
> 230 °C

melting point for `CC1(C)Oc2ncnc(N)c2N=C1c1ccc([C@H]2CC[C@H](CCN3CCC(O)(c4ccccc4)CC3)CC2)cc1` ?
115 to 116 °C

melting point for CN(CC(=O)O)C(=O)[C@H]1CC[C@H](c2ccc(C3=Nc4c(N)ncnc4OC3(C)C)cc2)CC1 [Example 2-219] ?
243 to 248 °C

melting point for `CC1(C)Oc2ncnc(N)c2N=C1c1ccc([C@H]2CC[C@H](C(=O)NCCO)CC2)cc1` ?
235 to 237 °C
